assay: Dissociation constant, pKa of the compound; assay type: physicochemical
resultType: pKa
Numbers only.

The following molecules have reported results that may help.
{"smilesEntry": "FC(F)(F)c1cc(-c2ccc3c(NCCCNCc4ccc5c(c4)OCO5)ccnc3c2)cc(C(F)(F)F)c1", "pKa": 9.47}
{"smilesEntry": "Fc1ccc(-c2ccc3c(NCCCNCc4ccc5c(c4)OCO5)ccnc3c2)cc1", "pKa": 9.47}
{"smilesEntry": "COc1ccc(Oc2ccc3c(NCCCNCc4ccc5c(c4)OCO5)ccnc3c2)cc1", "pKa": 9.28}
{"smilesEntry": "c1coc(CNCCCNc2ccnc3cc(C4CCCCC4)ccc23)c1", "pKa": 9.47}
{"smilesEntry": "COc1cccc(CNCCCNc2ccnc3cc(CC4CCCCC4)ccc23)c1O", "pKa": 9.47}

// for each molecule in input: emit pKa
1. COc1cccc(Oc2ccc3c(NCCCNCc4ccco4)ccnc3c2)c1
2. Cc1cc(C)cc(Cc2ccc3c(NCCCNCc4ccc5c(c4)OCO5)ccnc3c2)c1
3. COc1ccc(F)cc1CNCCCNc1ccnc2cc(C3CCCCC3)ccc12

[9.28, 9.47, 9.47]

// for each molecule in input: emit pKa
1. COc1ccc(-c2ccc3c(NCCCNCc4ccc5c(c4)OCO5)ccnc3c2)cc1
2. FC(F)(F)c1cccc(Cc2ccc3c(NCCCNCc4ccco4)ccnc3c2)c1
3. COc1ccc(F)cc1CNCCCNc1ccnc2cc(Oc3ccc(Cl)cc3)ccc12
4. COc1ccc(F)cc1CNCCCNc1ccnc2cc(Cc3cccc(C(F)(F)F)c3)ccc12

1: 9.47; 2: 9.47; 3: 9.28; 4: 9.47

// for each molecule in input: emit pKa
1. c1coc(CNCCCNc2ccnc3cc(CC4CCCCC4)ccc23)c1
2. COc1ccc(F)cc1CNCCCNc1ccnc2cc(CCc3ccccc3)ccc12
3. CCC(CC)c1ccc2c(NCCCNCc3ccc4c(c3)OCO4)ccnc2c1
4. COc1ccc(F)cc1CNCCCNc1ccnc2cc(-c3cc(C(F)(F)F)cc(C(F)(F)F)c3)ccc12
5. COc1cccc(CNCCCNc2ccnc3cc(Cc4cccc(C(F)(F)F)c4)ccc23)c1O
6. Fc1ccc(Cc2ccc3c(NCCCNCc4ccco4)ccnc3c2)c(Cl)c1
7. CC(C)Cc1ccc2c(NCCCNCc3ccc4c(c3)OCO4)ccnc2c1
8. c1ccc(Oc2ccc3c(NCCCNCc4ccc5c(c4)OCO5)ccnc3c2)cc1

1. 9.47
2. 9.47
3. 9.47
4. 9.47
5. 9.47
6. 9.47
7. 9.47
8. 9.28

// for each molecule in input: emit pKa
1. COc1cccc(CNCCCNc2ccnc3cc(Oc4ccccc4)ccc23)c1O
2. CC(C)(C)c1ccc(-c2ccc3c(NCCCNCc4ccco4)ccnc3c2)cc1

[9.28, 9.47]

// for each molecule in input: emit pKa
1. CC(C)(C)c1ccc(-c2ccc3c(NCCCNCc4ccc5c(c4)OCO5)ccnc3c2)cc1
2. FC(F)(F)c1cccc(Cc2ccc3c(NCCCNCc4ccc5c(c4)OCO5)ccnc3c2)c1
3. CC(C)(C)c1ccc(Oc2ccc3c(NCCCNCc4ccco4)ccnc3c2)cc1
4. COc1ccc(F)cc1CNCCCNc1ccnc2cc(Cc3ccc4c(c3)OCO4)ccc12
5. COc1cccc(CNCCCNc2ccnc3cc(Oc4ccc(Cl)cc4)ccc23)c1O
6. COc1cccc(CNCCCNc2ccnc3cc(Oc4cccc(N(C)C)c4)ccc23)c1O

[9.47, 9.47, 9.28, 9.47, 9.28, 9.28]

// for each molecule in input: emit pKa
1. Fc1ccc(Oc2ccc3c(NCCCNCc4ccco4)ccnc3c2)cc1
2. COc1ccc(F)cc1CNCCCNc1ccnc2cc(-c3ccc(C(C)(C)C)cc3)ccc12
3. CC(C)CCc1ccc2c(NCCCNCc3ccc4c(c3)OCO4)ccnc2c1
4. COc1ccc(F)cc1CNCCCNc1ccnc2cc(Oc3cccc(N(C)C)c3)ccc12
5. c1ccc(-c2ccc3c(NCCCNCc4ccc5c(c4)OCO5)ccnc3c2)cc1
6. COc1ccccc1Oc1ccc2c(NCCCNCc3ccco3)ccnc2c1
7. N#Cc1ccc(Cc2ccc3c(NCCCNCc4ccc5c(c4)OCO5)ccnc3c2)cc1
8. COc1cccc(CNCCCNc2ccnc3cc(-c4ccc(F)cc4)ccc23)c1O

[9.28, 9.47, 9.47, 9.28, 9.47, 9.28, 9.47, 9.47]

// for each molecule in input: emit pKa
1. Cc1cc(C)cc(Cc2ccc3c(NCCCNCc4ccco4)ccnc3c2)c1
2. c1ccc(CCc2ccc3c(NCCCNCc4ccc5c(c4)OCO5)ccnc3c2)cc1
3. COc1ccc(-c2ccc3c(NCCCNCc4cccc(OC)c4O)ccnc3c2)cc1
4. COc1cccc(CNCCCNc2ccnc3cc(Cc4ccc(F)cc4)ccc23)c1O
5. COc1cccc(CNCCCNc2ccnc3cc(C4CCCCC4)ccc23)c1O

1. 9.47
2. 9.47
3. 9.47
4. 9.47
5. 9.47
